Biological target: T1, human LTBP1-proTGFβ1 complex (human, UniProt Q14766 873-1507)
T1 construct: range 873-1507; biotinylated in Octet and MSD-SET; also called hLTBP1-proTGFβ1; hLTBP1
T1 sequence (Q14766 873-1507 limits assumed, chain 1 of 2): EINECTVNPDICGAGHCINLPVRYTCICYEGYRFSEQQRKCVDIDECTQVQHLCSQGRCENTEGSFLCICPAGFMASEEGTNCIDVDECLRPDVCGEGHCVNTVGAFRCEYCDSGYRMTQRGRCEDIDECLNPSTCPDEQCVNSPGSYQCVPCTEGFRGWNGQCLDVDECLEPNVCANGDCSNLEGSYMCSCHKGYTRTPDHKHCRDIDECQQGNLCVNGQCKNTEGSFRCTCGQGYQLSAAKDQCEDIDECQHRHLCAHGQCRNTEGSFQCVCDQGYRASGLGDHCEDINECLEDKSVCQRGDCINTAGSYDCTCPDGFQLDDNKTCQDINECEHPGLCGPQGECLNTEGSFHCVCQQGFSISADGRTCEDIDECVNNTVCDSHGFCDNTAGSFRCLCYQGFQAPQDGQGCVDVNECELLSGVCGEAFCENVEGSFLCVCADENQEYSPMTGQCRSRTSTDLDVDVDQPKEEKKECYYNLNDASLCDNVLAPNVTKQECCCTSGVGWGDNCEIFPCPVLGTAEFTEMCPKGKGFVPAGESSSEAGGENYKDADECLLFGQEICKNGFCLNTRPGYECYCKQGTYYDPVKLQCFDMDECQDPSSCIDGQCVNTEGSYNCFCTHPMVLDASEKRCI
T1 sequence (chain, as listed by the source limits assumed, chain 2 of 2): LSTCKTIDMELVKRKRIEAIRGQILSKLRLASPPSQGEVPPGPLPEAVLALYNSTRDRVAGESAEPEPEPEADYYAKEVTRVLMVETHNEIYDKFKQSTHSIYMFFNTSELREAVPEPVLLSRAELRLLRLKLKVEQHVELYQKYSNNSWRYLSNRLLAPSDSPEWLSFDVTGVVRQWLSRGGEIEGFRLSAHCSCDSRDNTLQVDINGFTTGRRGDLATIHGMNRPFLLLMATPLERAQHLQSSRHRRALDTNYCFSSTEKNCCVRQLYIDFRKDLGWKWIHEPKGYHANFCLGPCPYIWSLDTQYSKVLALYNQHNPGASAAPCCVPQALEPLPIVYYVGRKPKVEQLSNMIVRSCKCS
Experiment: MSD-SET, solution equilibrium titration
pKd: −log10 of the molar value.
readout_kind: pKd

1) Ab19 (antibody, IgG4, V domains shown) VH: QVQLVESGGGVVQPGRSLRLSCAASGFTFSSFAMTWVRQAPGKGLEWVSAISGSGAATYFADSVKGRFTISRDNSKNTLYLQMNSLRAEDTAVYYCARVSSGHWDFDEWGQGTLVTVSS VL: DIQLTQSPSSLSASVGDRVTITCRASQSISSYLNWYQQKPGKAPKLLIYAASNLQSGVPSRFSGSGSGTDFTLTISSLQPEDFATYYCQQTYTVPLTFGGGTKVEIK : 8.68
2) Ab26 (antibody, IgG4, V domains shown) VH: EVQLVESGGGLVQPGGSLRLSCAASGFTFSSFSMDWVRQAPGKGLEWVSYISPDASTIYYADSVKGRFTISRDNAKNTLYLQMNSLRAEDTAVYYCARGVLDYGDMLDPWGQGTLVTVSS VL: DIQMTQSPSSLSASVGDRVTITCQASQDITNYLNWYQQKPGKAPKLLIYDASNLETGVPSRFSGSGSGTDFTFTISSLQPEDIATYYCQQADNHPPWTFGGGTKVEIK : 10.55
3) Ab20 (antibody, IgG4, V domains shown) VH: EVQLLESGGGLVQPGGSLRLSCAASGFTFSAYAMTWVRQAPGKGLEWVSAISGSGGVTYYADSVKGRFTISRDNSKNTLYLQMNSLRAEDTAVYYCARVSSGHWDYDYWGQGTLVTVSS VL: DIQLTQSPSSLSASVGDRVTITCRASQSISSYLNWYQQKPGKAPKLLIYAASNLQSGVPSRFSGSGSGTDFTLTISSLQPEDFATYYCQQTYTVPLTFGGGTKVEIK : 9.66

Provenance of the data: patent US20220064275A1
